system: M14 melanoma; experiment: NCI tumour cell line growth inhibition, 48 h
Where a SMILES comes first, the peptide text is derived from it. The star is where a group is joined. Cbz = O=C(OCc1ccccc1)*
quantity_name: TGI

Worked set:
>  <molecule>
CCOC(=O)C(C)NC(=O)C(C)NC(=O)C(C)NC(=O)C(C)NC(=O)C(C)NC(=O)C(C)NC(=O)C(C)NC(=O)OCc1ccccc1 (stereo unspecified) (Cbz-AAAAAAA-OEt; configuration not given here)

>  <TGI>
> 100 µM

$$$$
>  <molecule>
Nc1c(C(=O)c2ccccc2)[nH]c(NCc2ccccc2)c1C(=S)Nc1ccccc1

>  <TGI>
> 100 µM

$$$$
>  <molecule>
NC(=O)N(O)c1cccc(Br)c1

>  <TGI>
> 100 µM

$$$$
>  <molecule>
CN1CCN(c2ccc3[nH]c(C4=C(O)c5nc(CO)n(C)c5C(=O)C4=O)nc3n2)CC1

>  <TGI>
> 100 µM

$$$$
>  <molecule>
CC/C=C\CCC/C=C1/C(=O)C=C[C@@H]1C/C=C\CCCC(=O)O

>  <TGI>
17.3 µM

$$$$

// moving on: another record for TGI
**Q:** Look up TGI for this molecule: `O=C(/C=C/c1ccco1)Nc1ncc(Cc2ccc(F)cc2)s1`
**A:** > 100 µM
